The reported measurements were obtained from paper PMC5150661.

- Format: in vitro ADME
- CONDITIONS_USED: liver microsomes

MOLECULE	metabolic stability (in words)
CC1(C)C(=O)N(c2ccc(F)c(C(F)(F)F)c2)C(=O)N1CCc1ccccc1 [Compd 6]	unstable
CC1(C)C(=O)N(c2ccc(F)c(C(F)(F)F)c2)C(=O)N1S(=O)(=O)c1ccccc1 [Compd 8]	unstable

###

- STUDY_TARGET: human albumin (Homo sapiens)
- Sequence (P02768 25-609): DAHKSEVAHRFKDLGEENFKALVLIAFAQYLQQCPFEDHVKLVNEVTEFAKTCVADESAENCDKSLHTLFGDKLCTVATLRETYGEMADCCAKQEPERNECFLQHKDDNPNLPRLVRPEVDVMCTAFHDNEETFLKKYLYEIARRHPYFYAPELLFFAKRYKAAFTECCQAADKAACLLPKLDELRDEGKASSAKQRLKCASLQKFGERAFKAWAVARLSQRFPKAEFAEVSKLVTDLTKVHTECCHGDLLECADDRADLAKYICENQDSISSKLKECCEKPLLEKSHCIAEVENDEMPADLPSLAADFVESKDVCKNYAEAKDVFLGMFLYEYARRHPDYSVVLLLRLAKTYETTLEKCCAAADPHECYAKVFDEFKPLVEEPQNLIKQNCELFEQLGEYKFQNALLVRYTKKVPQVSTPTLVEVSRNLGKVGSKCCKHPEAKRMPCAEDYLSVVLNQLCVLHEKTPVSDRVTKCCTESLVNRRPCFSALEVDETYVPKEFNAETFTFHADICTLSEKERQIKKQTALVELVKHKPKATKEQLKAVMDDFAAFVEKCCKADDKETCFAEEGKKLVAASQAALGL
- ASSAY_OVERVIEW: in vitro
- Format: in vitro ADME
- CONDITIONS_USED: plasma, cPPB, estimated from retention on human albumin column
MEASUREMENT_KIND: fraction unbound

MOLECULE	MEASUREMENT_KIND	REPORTED
CC1NC(=O)N(c2ccc(F)c(C(F)(F)F)c2)C1=O (stereo not shown)	fraction unbound	0.614

###

- STUDY_TARGET: wild-type androgen receptor (AR) in LAPC4 cell line (Homo sapiens, UniProt P10275)
- Sequence (P10275 whole entry): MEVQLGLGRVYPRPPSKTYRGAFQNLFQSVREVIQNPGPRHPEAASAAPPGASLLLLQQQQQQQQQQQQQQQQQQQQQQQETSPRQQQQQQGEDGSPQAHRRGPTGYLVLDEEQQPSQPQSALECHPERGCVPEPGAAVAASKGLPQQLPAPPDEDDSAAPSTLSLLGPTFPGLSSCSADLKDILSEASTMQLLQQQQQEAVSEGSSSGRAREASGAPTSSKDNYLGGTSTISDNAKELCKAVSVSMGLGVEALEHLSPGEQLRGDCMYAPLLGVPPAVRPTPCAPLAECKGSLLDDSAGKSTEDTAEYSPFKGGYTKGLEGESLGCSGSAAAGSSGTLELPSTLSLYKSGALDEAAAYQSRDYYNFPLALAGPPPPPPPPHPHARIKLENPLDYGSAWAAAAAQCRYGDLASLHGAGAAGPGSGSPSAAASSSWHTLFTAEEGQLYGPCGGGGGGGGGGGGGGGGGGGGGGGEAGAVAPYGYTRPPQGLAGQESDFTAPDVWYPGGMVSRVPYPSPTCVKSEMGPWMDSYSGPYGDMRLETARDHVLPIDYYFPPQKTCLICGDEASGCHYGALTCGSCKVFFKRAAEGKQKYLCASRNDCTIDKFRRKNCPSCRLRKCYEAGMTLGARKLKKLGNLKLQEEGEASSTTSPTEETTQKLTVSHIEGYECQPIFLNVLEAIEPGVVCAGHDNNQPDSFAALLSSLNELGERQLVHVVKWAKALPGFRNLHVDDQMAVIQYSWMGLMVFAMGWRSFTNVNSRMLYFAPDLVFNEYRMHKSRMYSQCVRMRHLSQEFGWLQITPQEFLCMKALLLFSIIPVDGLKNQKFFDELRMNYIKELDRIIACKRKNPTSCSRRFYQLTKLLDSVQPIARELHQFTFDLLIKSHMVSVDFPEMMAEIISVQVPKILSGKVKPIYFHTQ
- Assay type: cell-based

COMPOUND	IC50 / µM
O=C1N[C@H](c2ccccc2)C(=O)N1c1ccc(F)c(C(F)(F)F)c1 [Compd 24]	5.3

###

- ASSAY_OVERVIEW: Mouse exposure study after oral administration
- Format: in vivo, male Swiss outbred mice
- CONDITIONS_USED: male, Swiss outbred, mouse, plasma, po, 100 mg/kg
MEASUREMENT_KIND: AUC(0-t) (µM·h)

COMPOUND	UNIT_DESCRIPTOR	REPORTED
CC1NC(=O)N(c2ccc(F)c(C(F)(F)F)c2)C1=O (stereo not shown)	µM·h	163

###

- Type: in vitro ADME
- CONDITIONS_USED: liver microsomes
MEASUREMENT_KIND: metabolic stability (in words)

MOLECULE	MEASUREMENT_KIND	REPORTED
CN1C(=O)N(c2ccc(F)c(C(F)(F)F)c2)C(=O)C1(C)C [Compd 2]	metabolic stability (in words)	intermediate
CCN1C(=O)N(c2ccc(F)c(C(F)(F)F)c2)C(=O)C1(C)C [Compd 3]	metabolic stability (in words)	intermediate

###

Reported Sol2.0 is given for each of the following compounds.
- CONDITIONS_USED: 0.01 M HCl (approximately pH 2.0), 1% DMSO, nephelometry

COMPOUND	Sol2.0
CC1(C)OC(=O)N(c2ccc(F)c(C(F)(F)F)c2)C1=O	3.1–6.3/3.1–6.3 μg/mL
CC1(C)C(=O)N(c2ccc(F)c(C(F)(F)F)c2)C(=O)N1CC(N)=O	50–100/50–100 μg/mL
CC1(C)C(=O)N(c2ccc(F)c(C(F)(F)F)c2)C(=O)N1S(=O)(=O)c1ccccc1	<1.6/<1.6 μg/mL
CC1(C)NC(=O)N(c2ccc(F)c(C(F)(F)F)c2)C1=O	>100/>100 μg/mL
CC1(C)C(=O)N(c2ccc(F)c(C(F)(F)F)c2)C(=O)N1S(C)(=O)=O	1.6–3.1/1.6–3.1 μg/mL
CC1(C)NC(=O)C(c2ccc(F)c(C(F)(F)F)c2)C1=O (centres unmarked)	25 to 50 µg/mL
CC1(C)C(=O)N(c2ccc(F)c(C(F)(F)F)c2)C(=O)N1CC#N	25–50/25–50 μg/mL
CC1(C)CC(=O)N(c2ccc(F)c(C(F)(F)F)c2)C1=O	12.5–25/12.5–25 μg/mL
O=C1CNC(=O)N1c1ccc(F)c(C(F)(F)F)c1	>100/>100 μg/mL
O=C1NC2(CCCC2)C(=O)N1c1ccc(F)c(C(F)(F)F)c1	50–100/50–100 μg/mL
O=C1C2CCCN2C(=O)N1c1ccc(F)c(C(F)(F)F)c1 (centres unmarked)	25–50/25–50 μg/mL
CC1(C)CC(=O)N(c2ccc(F)c(C(F)(F)F)c2)C(=O)N1	25–50/25–50 μg/mL
CC1(C)C(=O)NC(=O)N1c1ccc(F)c(C(F)(F)F)c1	25–50/25–50 μg/mL
O=C1N[C@H](c2ccccc2)C(=O)N1c1ccc(F)c(C(F)(F)F)c1	6.3–12.5/6.3–12.5 μg/mL
CCN1C(=O)N(c2ccc(F)c(C(F)(F)F)c2)C(=O)C1(C)C	50 to 100 µg/mL
CC1(CO)NC(=O)N(c2ccc(F)c(C(F)(F)F)c2)C1=O (centres unmarked)	25–50/25–50 μg/mL
CC1(C)CN(c2ccc(F)c(C(F)(F)F)c2)C(=O)N1	12.5–25/12.5–25 μg/mL
CN1C(=O)N(c2ccc(F)c(C(F)(F)F)c2)C(=O)C1(C)C	50–100/50–100 μg/mL
CC1(C)C(=O)N(c2ccc(F)c(C(F)(F)F)c2)C(=O)N1CCc1ccccc1	12.5 to 25 µg/mL
CC1NC(=O)N(c2ccc(F)c(C(F)(F)F)c2)C1=O (centres unmarked)	>100/>100 μg/mL
CC(C)(NC(=O)Nc1ccc(F)c(C(F)(F)F)c1)C(=O)O	25 to 50 µg/mL
CC1(C)CNC(=O)N(c2ccc(F)c(C(F)(F)F)c2)C1=O	12.5–25/12.5–25 μg/mL
O=C1NC2(CCCCC2)C(=O)N1c1ccc(F)c(C(F)(F)F)c1	3.1–6.3/3.1–6.3 μg/mL
